Please find below pIC50 data on human ACC2 (Homo sapiens (Human)) compiled from the literature.
pIC50: −log10 of the molar value.
metric: pIC50

These solved cases illustrate the format of a correct answer.
>  <compound>
CCOc1cc(N2CCC(Oc3ccc([C@H](C)NC(C)=O)cc3)C2)c(C)cn1 (stereo partly shown)

>  <pIC50>
6.35

$$$$
>  <compound>
CCC(CC)Oc1ccc(C#Cc2ccc(CC(C)NC(C)=O)cc2)cc1 (stereo not shown)

>  <pIC50>
6.66

$$$$
>  <compound>
CC(=O)NC(C)Cc1ccc(C#Cc2ccc(Oc3ccccc3)nn2)cc1 (stereo not shown)

>  <pIC50>
5.82

$$$$

I = COc1ccccc1C(Cn1c(=O)n(C(C)(C)C(=O)O)c(=O)c2c(C)c(-c3ncco3)sc21)O[C@H]1C[C@H]2CO[C@@H](C1)O2 (stereo partly shown)
II = CCCOc1ccc(N2CCC(Oc3ccc([C@H](C)NC(C)=O)cc3)C2)cc1 (stereo partly shown)
III = CC(Cc1ccc(C#Cc2cnc(Oc3ccccc3)nc2)cc1)NC(=O)C1CC1 (stereo not shown)
**Query** Order the records so the highest pIC50 appears first and the lowest last. Reply format: the labels, ordered as requested.
**Result** I, II, III

I = CCOc1ccc(N2CCC(Oc3ccc([C@H](C)NC(C)=O)cc3)C2)c(C)c1 (stereo partly shown)
II = CCOc1cc(C#Cc2ccc(CC(C)NC(C)=O)cc2)ccn1 (stereo not shown)
**Query** Lab note: check whether I or II shows the higher recorded pIC50. Output the label that corresponds to your choice.
**Result** I
(I: 6.97, II: 6.57)

----------
The entries below pair molecules with IC50 values for human ACC2 (Homo sapiens (Human)), as found in several publications.
metric: IC50 (µM)

>  <molecule>
CC(=O)NC(C)Cc1ccc(C#Cc2cccc(C(=O)N3CCc4ccccc4C3)c2)cc1 (stereo not shown)

>  <unit_abbrev>
µM

>  <reading>
30

$$$$

1 = CC(=O)NC(C)Cc1ccc(C#Cc2ccnc(OC3CCCC3)n2)cc1 (stereo not shown)
2 = CCC(=O)N[C@@H](C)c1ccc(O[C@@H]2CCN(c3ccc(OC(C)C)cc3)C2)cc1
3 = CCNC(=O)C(C)c1ccc(O[C@@H]2CCN(c3ccnc(N(CC)CC)n3)C2)cc1 (stereo partly shown)
**Query** With regard to IC50, arrange the entries in ascending order, please. Respond with an ordered listing of the labels, as requested.
**Result** 3, 2, 1
(3: 0.095 µM, 2: 0.774 µM, 1: 4.3 µM)

----------
// read-out pIC50, gathered for human ACC2 (Homo sapiens (Human), UniProt O00763) from published studies
pIC50: −log10 of the molar value.
metric: pIC50

Here's what some known entries look like.
>  <compound>
CCC(C)Oc1ccc(N2CCC(Oc3ccc([C@H](C)NC(C)=O)cc3)C2)nc1 (some centres unmarked)

>  <reading>
6.61

$$$$
>  <compound>
CC(=O)N[C@@H](C)c1ccc(OC2CCN(c3ccc(OC4CC4)cc3C)C2)nc1 (some centres unmarked)

>  <reading>
6.64

$$$$

P = C[C@H](NC(=O)C1CC1)c1ccc(CN2Cc3ccc(OCC4CC4)cc3C(O)C2)cc1 (some centres unmarked)
Q = CCOc1ccc(C#Cc2ccc(C(C)C(=O)N(C)C)cc2)cc1 (centres unmarked)
R = CCNC(=O)C(C)c1ccc(C#Cc2ccc(OC(C)c3ccncc3)cc2)cc1 (centres unmarked)
S = CCCCOc1ccc(C#Cc2ccc(CC(C)NC(=O)C3CC3)cc2)cc1 (centres unmarked)
**Query** List from greatest to least pIC50. List the labels, following the order given in the request.
**Result** S, P, R, Q

I = CCCOc1ccc(C#Cc2ccc([C@H](C)NC(C)=O)cc2)cc1
II = CCC(=O)Nc1nc(C)c(C(=O)N[C@@H](C)c2ccc(O[C@@H]3CCN(c4ccnc(NCC5CC5)c4F)C3)cc2)s1
**Query** Of I and II , whose reported pIC50 is numerically smaller? Use the label to indicate which entry you chose.
**Result** I

----------
Literature survey of IC50 (system: human ACC2 (Homo sapiens (Human), UniProt O00763)).
metric: IC50 (nM)

>  <molecule>
CC(=O)NC(C)CCc1ccc(C#Cc2ccc(OCC(C)C)cc2)cc1 (centres unmarked)

>  <reading>
220

$$$$
>  <molecule>
CC(=O)NC(C)Cc1ccc(C#Cc2ccnc(N(C)Cc3ccccc3)n2)cc1 (centres unmarked)

>  <reading>
530

$$$$
>  <molecule>
COc1ccccc1C(Cn1c(=O)n(C(C)(C)C(=O)O)c(=O)c2c(C)c(-c3ncco3)sc21)OC1CCN(S(C)(=O)=O)CC1 (centres unmarked)

>  <reading>
5.13

$$$$

A = CC(=O)NC(C)Cc1ccc(C#Cc2cnc(Oc3cccnc3)nc2)cc1 (centres unmarked)
B = CC(=O)NC(C)Cc1ccc(C#Cc2ccc(C)cc2Cl)cc1 (centres unmarked)
C = COC(=O)NC(C)Cc1ccc(C#Cc2cnc(N3CCCC3)nc2)cc1 (centres unmarked)
D = CCOc1cccc(N2CCC(Oc3ccc([C@H](C)NC(C)=O)cc3)C2)n1 (some centres unmarked)
E = CC(=O)N[C@@H](C)c1ccc(OC2CCN(c3cc(OCC(F)F)ncc3C)C2)cc1 (some centres unmarked)
**Query** # desc sort on IC50 across 5 molecules To answer, write out the labels according to the requested order.
**Result** C, A, D, E, B

----------
Compiled notes: published IC50 values involving human ACC2 (Homo sapiens (Human), UniProt O00763).
metric: IC50 (µM)

A = CC(C#N)C(=O)N[C@@H](C)c1ccc(C2CN(c3ccc(OCC4CC4)cc3)C2)cc1 (stereo partly shown)
B = CCOc1ccc(C#Cc2ccc(C(C)NC(=O)CCO)cc2)cc1 (stereo not shown)
C = CCC(=O)N[C@@H](C)c1ccc(OC2CCN(c3ccnc(N4CCC(F)(F)C4)c3F)C2)cc1 (stereo partly shown)
**Query** Provide the items ranked by increasing IC50. Reply: labels, ordered per the request.
**Result** C, A, B

----------
pIC50: −log10 of the molar value.
Hi, quick share: literature pIC50 data for human ACC2 (Homo sapiens (Human)), several sources combined.
metric: pIC50

>  <compound>
COc1ccccc1C(Cn1c(=O)n(C2CNC2)c(=O)c2c(C)c(-c3ncco3)sc21)OC1CCOCC1 (centres unmarked)

>  <reading>
8.02

$$$$
>  <compound>
CC(=O)Nc1nc(C(=O)N[C@@H](C)c2ccc(C3CN(c4ccc(OCC5CC5)cc4)C3)cc2)co1

>  <reading>
5.63

$$$$
>  <compound>
CCNC(=O)C(C)c1ccc(O[C@@H]2CCN(c3ccc(OC4CCCC4)cc3)C2)cc1 (some centres unmarked)

>  <reading>
7.14

$$$$
>  <compound>
COc1ccccc1C(=O)N[C@@H](C)c1ccc(O[C@@H]2CCN(c3ccc(OCC4CC4)cc3)C2)cc1

>  <reading>
6.10

$$$$
>  <compound>
CCOc1ccc(C#Cc2ccc(C(C)C(=O)NCCOC)cc2)cc1 (centres unmarked)

>  <reading>
5.01

$$$$
>  <compound>
C[C@H](NC(=O)c1cnco1)c1ccc(OC2CCN(c3ccnc(OCC4CC4)c3)C2)cc1 (some centres unmarked)

>  <reading>
7.34

$$$$

I = CCCOc1ccc(C#Cc2ccc(CC(C)NC(C)=O)cc2)c(OC)c1 (centres unmarked)
II = COC1CCCC2(C1)OC(=O)C(c1cc(-c3ccc(Cl)cc3)ccc1C)=C2O (centres unmarked)
**Query** Input pair: I , II . Output: entry with lower pIC50. // respond with label for picked entry
**Result** II
(II: 4.71, I: 6.80)

a = COC(=O)N[C@@H](C)c1ccc(CN2Cc3ccc(OCC4CC4)cc3C(F)C2)cc1 (some centres unmarked)
b = CCCOc1ccc(C#Cc2ccc(CC(C)NC(C)=O)cc2)cn1 (centres unmarked)
c = CC(C(=O)N1CC(F)C1)c1ccc(O[C@@H]2CCN(c3nc(N(C)C)ncc3F)C2)cc1 (some centres unmarked)
d = C[C@H](NC(=O)c1cncs1)c1ccc(CN2CCc3cc(OCC4CC4(F)F)ccc3C2)cc1 (some centres unmarked)
**Query** Order the records by pIC50, with each subsequent value no larger than the one before. Output the labels ranked as instructed.
**Result** d, a, b, c
(d: 7.55, a: 6.94, b: 6.55, c: 5.26)

I = CC(=O)N[C@@H](C)c1ccc(O[C@@H]2CCN(c3ccnc(NCC(F)F)c3F)C2)cc1
II = COC(=O)NC(C)Cc1ccc(C#Cc2cnc(N3CCCCC3)nc2)cc1 (centres unmarked)
**Query** Select one: I or II . Criterion: greater recorded pIC50. Give the label under which the chosen entry appears.
**Result** I

A = CC(=O)NCC(C)(C)c1ccc(C#Cc2cnc(OC3CCC3)nc2)cc1
B = CCOc1ccc(C#Cc2ccc(CC(C)NC(=O)c3ccco3)cc2)cc1 (centres unmarked)
**Query** Lab note: check whether A or B has the lower measured pIC50. Response format: the label of the selected entry.
**Result** A
